Listing of entries alongside the reported Bacteria Count 10 day.
- System: aerobic heterotrophs
- assay-explanation: Bacteria Resistance Testing: acids added to infected electrodeposition permeate, spread plate count on R2A agar
- Type: cell-based
- run-conditions: acid at 200 ppm of active material, reactors rolled at 32° C., plated at 10 days

>  <molecule>
CCOCC(=O)O [Ethoxyacetic, ethoxyacetic acid]

>  <Bacteria Count 10 day>
4.8 × 10^7

$$$$
>  <molecule>
O=C(O)COc1ccccc1 [Phenoxyacetic, phenoxyacetic acid]

>  <Bacteria Count 10 day>
3.2 × 10^7

$$$$
>  <molecule>
COCC(=O)O [Methoxyacetic, methoxyacetic acid]

>  <Bacteria Count 10 day>
<4.0 × 10^1

$$$$
>  <molecule>
COCCOCCOCC(=O)O [2-[2-(2-methoxyethoxy)-ethox]acetic, 2-[2-(methoxyethoxy)ethoxy]acetic acid]

>  <Bacteria Count 10 day>
5.2 × 10^7

$$$$
>  <molecule>
COCCOCC(=O)O [2-(2-methoxyethoxy)acetic, 2-(2-methoxyethoxy)acetic acid]

>  <Bacteria Count 10 day>
2.3 × 10^7

$$$$
>  <molecule>
CCCCOCC(=O)O [Butoxyacetic, butoxyacetic acid]

>  <Bacteria Count 10 day>
5.6 × 10^7

$$$$

* * *

- Test system: aerobic heterotrophs
- assay-explanation: Bacteria Resistance Testing: acids added to infected electrodeposition permeate, spread plate count on R2A agar
- Format: cell-based
- run-conditions: acid at 500 ppm of active material, reactors rolled at 32° C., plated at 7 days
Listing of entries alongside the reported Bacteria Count 7 day.

>  <compound>
O=C(O)COc1ccccc1 [Phenoxyacetic, phenoxyacetic acid]

>  <Bacteria Count 7 day>
<4.0 × 10^1

$$$$
>  <compound>
CC(O)C(=O)O (stereo not shown) [Lactic, lactic acid, reference compound]

>  <Bacteria Count 7 day>
7.8 × 10^7

$$$$
>  <compound>
CCCCOCC(=O)O [Butoxyacetic, butoxyacetic acid]

>  <Bacteria Count 7 day>
<4.0 × 10^1

$$$$
>  <compound>
COCCOCCOCC(=O)O [2-[2-(2-methoxyethoxy)-ethox]acetic, 2-[2-(methoxyethoxy)ethoxy]acetic acid]

>  <Bacteria Count 7 day>
>1.2 × 10^4

$$$$
>  <compound>
CCOCC(=O)O [Ethoxyacetic, ethoxyacetic acid]

>  <Bacteria Count 7 day>
<4.0 × 10^1

$$$$
>  <compound>
COCCOCC(=O)O [2-(2-methoxyethoxy)acetic, 2-(2-methoxyethoxy)acetic acid]

>  <Bacteria Count 7 day>
>1.2 × 10^4

$$$$
>  <compound>
COCC(=O)O [Methoxyacetic, methoxyacetic acid]

>  <Bacteria Count 7 day>
<4.0 × 10^1

$$$$

* * *

- Tested on: aerobic heterotrophs
- assay-explanation: Bacteria Resistance Testing: acids added to infected electrodeposition permeate, spread plate count on R2A agar
- Format: cell-based
- run-conditions: acid at 500 ppm of active material, reactors rolled at 32° C., plated at 10 days
Listing of entries alongside the reported Bacteria Count 10 day.

>  <compound>
COCC(=O)O [Methoxyacetic, methoxyacetic acid]

>  <tested-target>
aerobic heterotrophs

>  <Bacteria Count 10 day>
<4.0 × 10^1

$$$$
>  <compound>
COCCOCCOCC(=O)O [2-[2-(2-methoxyethoxy)-ethox]acetic, 2-[2-(methoxyethoxy)ethoxy]acetic acid]

>  <tested-target>
aerobic heterotrophs

>  <Bacteria Count 10 day>
6.4 × 10^6

$$$$
>  <compound>
CCCCOCC(=O)O [Butoxyacetic, butoxyacetic acid]

>  <tested-target>
aerobic heterotrophs

>  <Bacteria Count 10 day>
<4.0 × 10^1

$$$$
>  <compound>
CC(O)C(=O)O (stereo not shown) [Lactic, lactic acid, reference compound]

>  <tested-target>
aerobic heterotrophs

>  <Bacteria Count 10 day>
2.4 × 10^7

$$$$
>  <compound>
O=C(O)COc1ccccc1 [Phenoxyacetic, phenoxyacetic acid]

>  <tested-target>
aerobic heterotrophs

>  <Bacteria Count 10 day>
<4.0 × 10^1

$$$$
>  <compound>
CCOCC(=O)O [Ethoxyacetic, ethoxyacetic acid]

>  <tested-target>
aerobic heterotrophs

>  <Bacteria Count 10 day>
<4.0 × 10^1

$$$$
>  <compound>
COCCOCC(=O)O [2-(2-methoxyethoxy)acetic, 2-(2-methoxyethoxy)acetic acid]

>  <tested-target>
aerobic heterotrophs

>  <Bacteria Count 10 day>
4.0 × 10^6

$$$$
